Tested on: MALME-3M melanoma
Assay name: NCI tumour cell line growth inhibition, 48 h
Exercise: state measured TGI for each of the molecules provided.

Quick check: TGI on MALME-3M melanoma, item O=C1NC2(CCCCC2)C2CCCCC(O)C12 (stereo not given) ?
> 100 µM

Given the entry NC(CCc1nc(-c2ccc(Cl)cc2)cs1)C(=O)O (stereo not given) , what TGI was observed with MALME-3M melanoma?
> 100 µM

I'm curious: which TGI was measured for CC(=O)N1[C@H](C(=O)O)CS[C@H]1c1ccncc1 tested on MALME-3M melanoma?
> 100 µM

So what TGI did Oc1ccc(Cl)cc1-c1cc(-c2ccccc2Cl)[nH]n1 get with MALME-3M melanoma?
> 100 µM

Form field: TGI recorded for C[N+](C)(CCCn1ccnc1[N+](=O)[O-])CCCn1ccnc1[N+](=O)[O-] with MALME-3M melanoma (enter value)
> 100 µM

// lookup TGI | system=MALME-3M melanoma | key= CS(=O)(=O)OCCCCOS(=O)(=O)CF
> 46.4 µM

For the record COC1(c2ccc(Cl)cc2)SC=C(C)n2c1noc2=O (stereo not given) , what value of TGI is listed for MALME-3M melanoma?
> 100 µM

Short answer please: TGI, MALME-3M melanoma, entry NC(=O)C(=CNC(N)=S)C(N)=O
> 100 µM

What measured TGI is associated with CC(=O)c1cccc(Nc2nc3ccccc3c3occc23)c1 on MALME-3M melanoma?
53 µM

Value wanted: TGI (MALME-3M melanoma) of entry COc1ccccc1NC(=O)CC(=O)n1nc(C)c(N=Nc2ccccc2C(=O)O)c1C
> 100 µM

Under MALME-3M melanoma: TGI value of CC1=C(C(=O)Nc2ccccc2C)C(c2ccco2)C(C(=O)Nc2ccccc2C)=C(C)N1C ?
> 100 µM

Field: TGI (MALME-3M melanoma). Entry: CCCCCCCC(=O)SCC/C=C/[C@@H]1CC(=O)NCc2cccc(n2)C2=N[C@@](C)(CS2)C(=O)N[C@@H](C(C)C)C(=O)N1
2.37 µM

Form field - read-out: TGI; system: MALME-3M melanoma; submitted item: O=C1N(C2CCCCC2)C(=O)N1C1CCCCC1
11.7 µM

Under MALME-3M melanoma: TGI value of NC(CSC(c1ccccc1)(c1ccccc1)c1ccc2c(c1)OCO2)C(=O)O (stereo not given) ?
74.4 µM

Recall the recorded TGI for Cn1ccnc1C(=O)/C=C/c1ccc(CC(=O)Nc2ccc(Br)cc2)cc1 with MALME-3M melanoma and state it.
10.8 µM

Can you look up TGI on MALME-3M melanoma for S=c1nc2sc3c(c2c(Nc2ccc(Cl)cc2)[nH]1)CCCC3 ?
> 100 µM

Lab note: need TGI for CC(=O)C(CN(C(C)C)C(C)C)C(c1ccccc1)c1c(O)c2ccccc2oc1=O (stereo not given) on MALME-3M melanoma, anyone have it?
> 100 µM

Request - read-out TGI | tested on MALME-3M melanoma | molecule COc1ccc2nc3cc(Cl)ccc3c(Sc3ccccc3[N+](=O)[O-])c2c1
> 100 µM

Missing value: TGI, MALME-3M melanoma, entry c1cc2c(cc1NC1=NCCO1)CCC2 . Fill in?
> 10 µM

GET /values?readout=TGI&system=MALME-3M melanoma&item= CSc1ccccc1C#C/C=C\C#Cc1ccccc1N1CCCC1=O
> 50 µM

Please provide the recorded TGI for O=C(O)c1cc(C(=O)O)cc(N2C(=O)c3ccccc3C2=O)c1 , tested on MALME-3M melanoma.
> 100 µM

What is its TGI for MALME-3M melanoma? Entry: NC(=O)c1ccc(C(=O)Nc2ccc([As](=O)(O)O)cc2)cc1
> 100 µM

Give the reported TGI for CCOC(=O)COc1cccc2c1C(=O)CCO2 (system: MALME-3M melanoma).
> 100 µM

Return TGI measured with MALME-3M melanoma given this molecule: CNC(=O)c1ccccc1Nc1nc(Nc2ccc(N3CCOCC3)cc2OC)ncc1Cl
16.9 µM

// map Cn1c(=O)c2c3ccccc3n(C)c2n(C)c1=O to recorded TGI (system: MALME-3M melanoma)
> 100 µM

I'm curious: which TGI was measured for COc1cc2nc(-c3ccc(C(F)(F)F)cc3)cc(OCCCN3CCC(O)CC3)c2cc1OC tested on MALME-3M melanoma?
11.8 µM

Query TGI on MALME-3M melanoma for COc1ccc(-c2cc(=O)c3ccc(O)cc3o2)c(OC)c1OC
> 100 µM

# query: TGI | item COc1ccc(/C=C\c2cc(OC)c3c(c2)OCO3)c(O)c1O | system: MALME-3M melanoma
48.7 µM

Which TGI is reported with MALME-3M melanoma for this entry: CCNC1C2(CCCCC2)NC(=O)C12CCCCC2 (stereo not given) ?
> 100 µM

What value of TGI on MALME-3M melanoma does CCN(CC)CC(C(=O)Nc1c(C)cccc1C)/C(C)=N\NC(=O)C[N+](C)(C)C (stereo not given) have?
> 100 µM

Value wanted: TGI (MALME-3M melanoma) of entry COc1cc2nc(C)nc(N[C@H](C)c3cc(N)cc(C(F)(F)F)c3)c2cc1O[C@H]1CCOC1
33.4 µM

For MALME-3M melanoma, provide TGI of CC(=O)Nc1oc(C)c(C)c1S(=O)(=O)c1ccc(Cl)cc1 please.
> 100 µM

# value lookup — system MALME-3M melanoma, readout TGI, item COc1ccc(N2CN3OC(=O)N(c4ccc(OC)cc4)[C@@]3(c3ccccc3)C2)cc1
> 100 µM

What is its TGI for MALME-3M melanoma? Entry: CCCCCCCCSC1=CC(=O)c2nc3ccccc3c3ccnc1c23
> 100 µM

Tell me reported TGI for CC1=C(C#N)C23C(=O)c4ccccc4C(O)=C2C(=O)C=CC3(O)N1Cc1ccccc1 (stereo not given) , tested with MALME-3M melanoma.
47.1 µM
